test system: SN12C renal; assay: NCI-60 one-dose screen, 48 h; details: 10 µM unless noted
About 83,000 compounds went through this panel and 20% of them were active in at least one assay; those are over-represented in the sample as a whole. Calls of active or inactive are those of the source. The calls were made as follows: active = growth percent below 10; inactive = the rest.
Outcome codes: YES = active, NO = inactive

> print(dat)
                                    compound    tested.on  answer.label
 1         CC(C)OC(=O)c1ccc([N+](=O)[O-])cc1  SN12C renal            NO
 2  Cc1cc(C#Cc2ccccc2)ccc1-n1c(/C=C/c2ccc(F)cc2)nc2ccccc2c1=O  SN12C renal            NO
 3                     Cc1nc2n[nH]c(N)c2nc1C  SN12C renal            NO
 4  COc1cc(/C=C/C(=O)c2ccc(NC(=O)CSc3nnc(-c4ccc(Cl)cc4)n3-c3ccccc3)cc2)cc(OC)c1OC  SN12C renal            NO
 5  COc1ccc(-c2nc(-c3ccccc3OCc3ccccc3OC)nc(C)c2C(C)=O)cc1  SN12C renal            NO
 6  COc1cc(C)c2c(=O)c3c(oc2c1)C(=O)c1c(O)c(OC)cc(O)c1C3=O  SN12C renal            NO
 7  CCn1c(CN2CCN(Cc3ccccc3)CC2)nc2cc(NC(=O)c3cccs3)ccc21  SN12C renal           YES
 8  CCOC(=O)c1c(NC(=O)c2ccccc2)sc2c(O)c(CN(CC)CC)ccc12  SN12C renal            NO
 9  Fc1[nH]nc2ccc([C@@H]3Nc4ccc5[nH]ncc5c4[C@H]4C5CCC(C5)[C@@H]34)cc12 (some centres undefined)  SN12C renal            NO
10  CN(C)c1ccc(C(c2ccccc2)c2ccc(N(C)C)cc2)cc1  SN12C renal            NO
11  COc1cc(NCCCCC(C)N)c2nccc(C)c2c1 (centres undefined)  SN12C renal            NO
12  Nc1nc2ccc([C@@H]3Nc4ccc5[nH]ncc5c4[C@H]4[C@H]5CCC(C5)[C@H]43)cc2s1  SN12C renal            NO
13            C/C(=N\NC(=S)N1CCCCC1)c1ccccn1  SN12C renal            NO
14  Cc1n(Cc2ccc3ccccc3n2)cc[n+]1Cc1ccc2ccccc2n1  SN12C renal            NO
15  COc1ccc2[nH]c(C(=O)OCc3ccc4c(Br)cc(Br)c(O)c4n3)cc2c1  SN12C renal           YES
16  COc1ccc(C2C=C(c3ccc(Cl)cc3)N=C3SC=CN32)cc1 (centres undefined)  SN12C renal            NO
17  CNCc1ccccc1CN(CC(=O)Nc1ccc2c(c1)CC1(C2)C(=O)Nc2ncccc21)C(=O)C(C)(C)C (centres undefined)  SN12C renal            NO
18  CNC(=O)c1cc(Oc2ccc(NC(=O)c3nc(S(C)(=O)=O)n(C)c3-c3ccc(F)cc3)cc2)ccn1  SN12C renal            NO
19          CCCCCCCCCC1=NC(C)(C)CN1C(C)(C)CO  SN12C renal            NO
20     CCc1oc2ccccc2c1C(=O)c1cc(I)c(O)c(I)c1  SN12C renal            NO
21  Cc1nc2ccc(Nc3nc(N4CCOCC4)nc(N4CCN(C)CC4)n3)cc2n1Cc1ccccc1  SN12C renal            NO
22  CO[C@@]12[C@@H]3NC3CN1C1=C(C(=O)C(N)=C(C)C1=O)[C@@H]2COC(N)=O (some centres undefined)  SN12C renal            NO
23   CC(C)=CCC[C@H](C)c1ccc(C)c2c1OCN(CCO)C2  SN12C renal            NO
24  C=CCn1c(SCC(=O)Nc2ccc(C(=O)/C=C/c3ccc(Cl)cc3)cc2)nnc1-c1ccc(Cl)cc1  SN12C renal            NO
25  COc1ccc(-c2nn(-c3cccc(Cl)c3)cc2/C=C2\C(=N)N(c3ccccc3)N=C2N)cc1  SN12C renal            NO
26                Cc1cc(Cl)c2ccc(N(C)C)cc2n1  SN12C renal            NO
27  COc1ccc(/C=C/C(=O)c2ccc(NC(=O)CSc3nnc(-c4ccc(OC)cc4)n3-c3ccccc3)cc2)cc1  SN12C renal            NO
28  O=C(CN1CCN(c2ccccc2)CC1)N1CCN(c2nnc(-c3ccc(Cl)cc3)c(-c3ccc(Cl)cc3)n2)CC1  SN12C renal            NO
29  CC1=C(C(=O)Nc2ccc(F)cc2)C(c2ccc(Cl)cc2)C2=C(CC(C)(C)CC2=O)N1 (centres undefined)  SN12C renal            NO
30  COc1cc2nccc(Oc3ccc(NC(=O)C4(C(=O)Nc5c(F)cc(F)cc5F)CC4)cc3)c2cc1Oc1ccc(N)cn1  SN12C renal            NO
31            COc1ccccc1NC(=O)OCC12COCN1COC2  SN12C renal            NO
32  CNCc1cccc2c1OCCOCCOCCC(C)S(=O)(=O)c1ccc(cc1)-c1cnc(N)c(n1)C(=O)N2 (centres undefined)  SN12C renal            NO
33  COC(=O)C(CCC(=O)CCl)N1C(=O)c2ccccc2C1=O (centres undefined)  SN12C renal            NO
34  Oc1[nH]c2ccc(Cl)cc2c1/C=c1/ccc2c(c1)N=C(c1ccc(F)cc1)N=2  SN12C renal            NO
35  CC(=O)[C@H]1CC[C@H]2[C@@H]3CC[C@H]4CC=CC[C@]4(C)[C@H]3CC[C@]12C  SN12C renal            NO
36  Cc1cc(C)cc(NC(=O)Cn2nncc2CN2C(=O)CSC2=O)c1  SN12C renal            NO
37  CCC(C)C1NC(=O)c2nc(oc2-c2ccccc2)-c2csc(n2)-c2csc(n2)-c2nc(oc2C)-c2coc(n2)CNC(=O)C(C(C)CC)NC1=O (centres undefined)  SN12C renal           YES
38  CC(=O)N1N=C(c2ccc(C)cc2)CC1c1cn(-c2ccccc2)nc1-c1cccc(Nc2ccnc3cc(Cl)ccc23)c1 (centres undefined)  SN12C renal            NO
39           Oc1ccc(Nc2ncnc3c2sc2ncccc23)cc1  SN12C renal            NO

---

test system: NCI-H460 lung; test: NCI-60 one-dose screen, 48 h (100 = growth as untreated, 0 = no growth, -100 = all killed); details: 10 µM unless noted
This is part of a sample that, as a whole, favours compounds with a hit. Of some 83,000 tested, about 20% had one in any assay.
growth by entry:

compound	growth / %
COc1ccc(Nc2ncnc3c2sc2nc(C)cc(C)c23)cc1	97.9
COc1ccc(OC)c(Nc2nc(-c3c(C)nc4sccn34)cs2)c1	62.4
CC1(C)C(N(O)C(=O)Nc2ccc(Cl)cc2)N(c2ccc(Cl)cc2)C(=O)N1CC(=O)N/N=C/C=C/c1ccc([N+](=O)[O-])o1 (configuration not stated)	-13.1
COc1ccc(C(=O)c2c(N)nc3n2CCCC3)cc1OC	105
Clc1cc(Br)ccc1-c1ccc(CNCC2CCNCC2)o1	9.35
c1ccc2c(Cc3csc4ccccc34)csc2c1	104
O=C(O)c1ccccc1N=Cc1ccccc1	106
[Ag].[Ag].[NH-]S(=O)(=O)c1ccc(N=Nc2cc(N=Nc3ccc(S([NH-])(=O)=O)cc3)c3c(NC(=O)C(Cl)Cl)cccc3c2OC(=O)C(Cl)Cl)cc1.[c-]1nccs1.[c-]1nccs1	56.7
Cc1ccc(NC(=O)c2[nH]c(SCCN(C)C)nc2-c2ccc(F)cc2)cc1C#Cc1cnc2cccnn12	-69.4
COc1ccc(-c2n[nH]nc2-c2cc(OC)c3c(c2)OCO3)cc1	7.77
OC(c1cc(-c2ccc(C(F)(F)F)cc2)nc(-c2ccc(C(F)(F)F)cc2)c1)C1CCCCN1 (configuration not stated)	-67.7
[O-]/[N+](=C\c1ccccc1)CC1(O)CCCCC1	103
O=C(N=Nc1c(Cl)c(O)c2ccccc2c1O)C(=O)Nc1cccc(C(F)(F)F)c1	79.8
O=C(C(=O)c1cccnc1)c1cccnc1	111
O=C(CI)NCCNc1cccc2c(S(=O)(=O)O)cccc12	105
C/C(=C\C(=N\N=C(N)N)c1ccc(Cl)cc1)c1ccc(Cl)cc1	-66.8
CC1(C)C2CCC(O)(C(=O)O)C1C2 (configuration not stated)	116
NC(N)=N/N=C\c1cccc(OCc2ccccc2)c1	95.3
Cc1ccc(Nc2nc(NCCO)c3ccccc3n2)cc1C	-2.08
CN(C)c1ccc(C(c2ccccc2)c2ccc(N(C)C)cc2)cc1	99
Cc1ccc(O)c(Cc2ccccc2)c1	99
COc1ccc(Nc2ncccc2C(=O)NCc2cn(Cc3cc(OC)cc(OC)c3)nn2)cc1	98.3
